The measured values listed here are drawn from PubChem BioAssay AID1159580.

- TEST NAME: chemical genetic growth profiling, strain panel (AID 1159580);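 also: tested at 20 µM; growth read once vehicle control cultures reached saturation at 30 °C; 1 = growth at the plate median or of vehicle wells; lower values mean less growth of the strain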
- MEASUREMENT CONTEXT: S. cerevisiae deletion strains, growth OD, locus YLL001W, strain dnm1
Hit rate of the full screen: of about 5,500 compounds, about 2,000 (36%) were called active. Another 18% or so got no clear call; they are omitted. Rule as the data show it: active = normalized growth mostly below about 0.91 (no sharp cut-off); inconclusive = no clear call, values can overlap the other calls; inactive = mostly above about 0.92. The list shows a part of the results.
Hi! Could you answer with just one of these? active, inactive

Oc1ccc2c(c1)O[C@H](c1ccc(O)c(O)c1)[C@@H](O)C2 : inactive
C#CCCCCCCCCCCCc1ccco1 : inactive
CCCCCCCCCCCCCc1ccco1 : inactive
COC(=O)C[C@H]1C2(C)CC34OC5(C)O[C@@]6([C@H](OC)C(OC(=O)C(C)C)[C@]7(C)C(/C(=C(/OC)C(C)C)C(=O)O[C@H]7c7ccoc7)[C@@]6(O5)[C@H](OC)[C@@]3(OC)C2OC(C)=O)[C@]14C (stereo partly specified) : inactive
C=CCCCCCCCCCCCc1ccco1 : active
CO/N=C1/CN(c2nc3c(cc2F)c(=O)c(C(=O)O)cn3C2CC2)CC1CN (stereo unspecified) : inactive
CCn1cc(C(=O)O)c(=O)c2cc(F)c(N3CCNC(C)C3)c(F)c21 (stereo unspecified) : inactive
CCn1cc(C(=O)O)c(=O)c2cc(F)c(N3CCNCC3)nc21 : inactive

In: Which outcome was entered for the compound C[C@@H]1CC(Cl)CC[C@H]1C(=O)OC(C)(C)C (stereo partly specified) in this test?
Out: inactive

In: Which outcome was entered for the compound "O=C(O[C@@H]1Cc2c(O)cc(O)cc2O[C@@H]1c1cc(O)c(O)c(O)c1)c1cc(O)c(O)c(O)c1" in this test?
Out: active

In: Which outcome was entered for the compound COc1cc([C@@H]2c3cc4c(cc3[C@@H](O)C3COC(=O)C32)OCO4)cc(OC)c1O (stereo partly specified) in this test?
Out: inactive

In: Which outcome was entered for the compound "O=C(c1ccc(OCCN2CCCCC2)cc1)c1c(-c2ccc(O)cc2)sc2cc(O)ccc12" in this test?
Out: inactive

In: Which outcome was entered for the compound C=C1CCC2[C@](C)(CO)[C@H](O)CC[C@@]2(C)[C@@H]1C/C=C1/C(=O)OC[C@H]1O (stereo partly specified) in this test?
Out: inactive

In: Which outcome was entered for the compound C=C1C2CC[C@@]3(C)[C@H](c4ccoc4)OC(=O)C[C@]13O[C@H]1CC(=O)C(C)(C)[C@H](C(OC(C)=O)C(=O)OC)[C@@]21C (stereo partly specified) in this test?
Out: inactive

In: Which outcome was entered for the compound CC(=O)S[C@@H]1CC2=CC(=O)CC[C@]2(C)[C@H]2CC[C@@]3(C)[C@@H](CC[C@@]34CCC(=O)O4)C12 (stereo partly specified) in this test?
Out: inactive

In: Which outcome was entered for the compound COc1c(N2CCNC(C)C2)c(F)cc2c(=O)c(C(=O)O)cn(C3CC3)c12 (stereo unspecified) in this test?
Out: inactive

In: Which outcome was entered for the compound COc1ccc(OC)c(C(O)CNC(=O)CN)c1 (stereo unspecified) in this test?
Out: inactive

In: Which outcome was entered for the compound COC(=O)C[C@H]1C2(C)CC34OC5(C)O[C@@]6([C@H](OC(C)=O)C(OC(C)=O)[C@]7(C)C(/C(=C(/O)C(C)C)C(=O)O[C@H]7c7ccoc7)[C@@]6(O5)[C@H](OC(C)=O)[C@@]3(O)C2OC(=O)C(C)C)[C@]14C (stereo partly specified) in this test?
Out: inactive

In: Which outcome was entered for the compound "COc1ccc(C(c2ccc(OC)cc2)C(Cl)(Cl)Cl)cc1" in this test?
Out: inactive

In: Which outcome was entered for the compound C=C[C@@](C)(O)CCC1C(=C)CCC2[C@@](C)(CO)CCC[C@]12C (stereo partly specified) in this test?
Out: inactive

In: Which outcome was entered for the compound "COc1cc(CNC(=O)CCCC/C=C/C(C)C)ccc1O" in this test?
Out: inactive

In: Which outcome was entered for the compound CC[C@@H](C(=O)C(C)[C@@H](O)[C@H](C)CCc1ccc(C)c(O)c1C(=O)O)C1OC(CC)(C2CC[C@](O)(CC)[C@H](C)O2)C[C@@H]1C (stereo partly specified) in this test?
Out: active

In: Which outcome was entered for the compound C[C@]12CCC(=O)C=C1C=CC1C2CC[C@@]2(C)C1CC[C@@]21CCC(=O)O1 (stereo partly specified) in this test?
Out: inactive

In: Which outcome was entered for the compound CCC(C)C(=O)O[C@@H]1C[C@@]2(C)[C@H](c3ccoc3)OC(=O)CC23OC2(C)OC34[C@H](OC(=O)C(C)C)[C@@]3(O)[C@@H](OC(=O)C5(C)OC5C)[C@@]5(C)C[C@]3(O)[C@@](C)([C@H]5CC(=O)OC)C14O2 (stereo partly specified) in this test?
Out: inactive

In: Which outcome was entered for the compound "O=C(Oc1cc(O)cc2c1C[C@@H](OC(=O)c1cc(O)c(O)c(O)c1)[C@@H](c1cc(O)c(O)c(O)c1)O2)c1cc(O)c(O)c(O)c1" in this test?
Out: inactive

In: Which outcome was entered for the compound "Oc1cc(O)c2c(c1)O[C@H](c1cc(O)c(O)c(O)c1)[C@H](O)C2" in this test?
Out: inactive

In: Which outcome was entered for the compound "c1ccc2c(c1)sc1ccccc12" in this test?
Out: active

In: Which outcome was entered for the compound "CC(=O)Oc1cc(OC(C)=O)c2c(c1)O[C@H](c1ccc(OC(C)=O)c(OC(C)=O)c1)[C@H](OC(C)=O)C2" in this test?
Out: inactive

In: Which outcome was entered for the compound "NCCc1cnc[nH]1" in this test?
Out: inactive

---

- TEST NAME: chemical genetic growth profiling, strain panel (AID 1159580);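 also: tested at 20 µM; growth read once vehicle control cultures reached saturation at 30 °C; 1 = growth at the plate median or of vehicle wells; lower values mean less growth of the strain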
- MEASUREMENT CONTEXT: S. cerevisiae deletion strains, growth OD, locus YJL157C, strain FAR1, hits give low values
The campaign covered roughly 5,500 compounds. About 2,000 (36%) were called active. Not shown: some 18% with an inconclusive outcome. The list shows a part of the results.
Each entry below carries its reported normalized growth.
Format: numeric value only, no unit, no commentary.

Here's what some known entries look like.
N#C/C(=N/Nc1ccc(F)cc1)S(=O)(=O)c1ccc(Cl)cc1 : 0.953
Oc1c(Cl)cc(Cl)cc1C=Nc1nc(-c2ccc3ccccc3c2)cs1 : 0.685

In: Give the measured normalized growth of "CC(=O)/C(C#N)=N\Nc1ccc(F)cc1" .
Out: 0.102

---

Each entry below carries its reported normalized growth.
- TEST NAME: chemical genetic growth profiling, strain panel (AID 1159580);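 also: tested at 20 µM; growth read once vehicle control cultures reached saturation at 30 °C; 1 = growth at the plate median or of vehicle wells; lower values mean less growth of the strain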
- MEASUREMENT CONTEXT: S. cerevisiae deletion strains, growth OD, locus YLR384C, strain iki3, hits give low values
The campaign covered roughly 5,500 compounds. About 2,000 (36%) were called active. About 18% were inconclusive and are not listed. Some of the results follow.
Format: numeric value only, no unit, no commentary.

In: Give the measured normalized growth of COc1cc([C@@H]2c3cc4c(cc3[C@@H](O)C3COC(=O)C32)OCO4)cc(OC)c1O (stereo partly specified) .
Out: 0.982

In: Give the measured normalized growth of C/C=C(\C)C(=O)O[C@H]1C[C@@H](OC(C)=O)[C@@]2(C(=O)OC)CO[C@@H]3C2[C@]12CO[C@](O)(C(=O)OC)[C@H]2[C@](C)(C12O[C@@]1(C)[C@H]1C[C@@H]2OC2OC=C[C@@]21O)[C@@H]3O (stereo partly specified) .
Out: 0.976

In: Give the measured normalized growth of "CC(=O)Oc1cc(OC(C)=O)c2c(c1)O[C@H](c1ccc(OC(C)=O)c(OC(C)=O)c1)[C@H](OC(C)=O)C2" .
Out: 1

In: Give the measured normalized growth of "CC[C@@]1(O)C[C@H](O)c2c(cc3c(c2O)C(=O)c2c(O)ccc(O)c2C3=O)[C@H]1C(=O)OC" .
Out: 1.02

In: Give the measured normalized growth of "CN1CC(=O)N=C1N" .
Out: 1.01

In: Give the measured normalized growth of COc1ccc(C2CNC(=O)C2)cc1OC1CCCC1 (stereo unspecified) .
Out: 0.999

In: Give the measured normalized growth of COc1c(N2CCNC(C)C2)c(F)cc2c(=O)c(C(=O)O)cn(C3CC3)c12 (stereo unspecified) .
Out: 0.995

In: Give the measured normalized growth of CC(=O)O[C@H]1C[C@@H](OC(C)=O)C(C)(C)C2CC(=O)[C@]3(C)C(CC[C@@]4(C)[C@H](C(=O)O)OC(=O)C5OC543)[C@]21C (stereo partly specified) .
Out: 0.998

In: Give the measured normalized growth of OCC(O)CN1CCN(c2ccccc2)CC1 (stereo unspecified) .
Out: 0.987
